Just for reference, ChEMBL document CHEMBL1152215 is where these values come from.

# log10(Ki) per record follows
# TARGET UNDER TEST: 5-hydroxytryptamine receptor 1D (Homo sapiens, UniProt P28221)
# Sequence (P28221 whole entry): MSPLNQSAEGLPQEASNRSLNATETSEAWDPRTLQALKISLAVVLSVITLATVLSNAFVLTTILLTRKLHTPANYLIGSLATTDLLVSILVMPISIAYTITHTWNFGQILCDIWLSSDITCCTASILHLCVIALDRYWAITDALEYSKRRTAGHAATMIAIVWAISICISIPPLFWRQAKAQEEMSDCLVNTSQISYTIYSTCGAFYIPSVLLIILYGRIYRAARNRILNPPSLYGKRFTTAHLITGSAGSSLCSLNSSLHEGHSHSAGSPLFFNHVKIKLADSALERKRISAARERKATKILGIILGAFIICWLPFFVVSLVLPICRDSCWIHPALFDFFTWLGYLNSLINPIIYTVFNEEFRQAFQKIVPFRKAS
Please keep in mind that the values are log10 of Ki expressed in pM.

Recorded results for 6 molecules are shown here.
O=C1COc2ccc(CCN3CCN(c4cccc5cccnc45)CC3)cc2N1 : 2.40
Cc1ccc2c(N3CCN(CCc4ccc5c(c4)NC(=O)CO5)CC3)ccc(F)c2n1 : 2.50
Cc1ccc2c(N3CCN(CCc4ccc5c(c4)NC(=O)CO5)CC3)cc(F)cc2n1 : 2.30
Cc1ccc2c(N3CCN(CCc4ccc5c(c4)NC(=O)CO5)CC3C)cccc2n1 (centres undefined) : 2.50
Cc1ccc2c(N3C[C@H]4C[C@@H]3CN4CCc3ccc4c(c3)NC(=O)CO4)cccc2n1 : 4.40
Cc1ccc2c(N3CCN(CCc4cc(F)c5c(c4)NC(=O)CO5)CC3)cccc2n1 : 2.30

# log10(Ki) (molecule: Cc1ccc2c(N3CCN(CCc4cc5c(cc4F)OCC(=O)N5)CC3)cccc2n1 ) is 2.40

So, Cc1cc2c(N3CCN(CCc4ccc5c(c4)NC(=O)CO5)CC3)cccc2[nH]1 ? Its log10(Ki) was 2.30

Please fill in: log10(Ki) reported for Cc1ccc2c(N3CCN(CCc4ccc5c(c4)NC(=O)CO5)[C@H](C)C3)cccc2n1 = 2.70

###

# TARGET UNDER TEST: 5-hydroxytryptamine receptor 1D (Homo sapiens)
# METHOD SUMMARY: Intrinsic activity at human 5HT1D receptor expressed in CHO cells by [S35]GTPgammaS binding assay relative to serotonin
# Type: functional, cell-based
MEASUREMENT KIND: Intrinsic activity
A bare number is all that is needed in reply.

Example entries and their recorded answers appear below.
Cc1ccc2c(N3C[C@H]4C[C@@H]3CN4CCc3ccc4c(c3)NC(=O)CO4)cccc2n1 : 0
Cc1ccc2c(N3CCN(CCc4cc(F)c5c(c4)NC(=O)CO5)CC3)cccc2n1 : 0
Cc1ccc2c(N3CCN(CCc4ccc5c(c4)NC(=O)CO5)CC3C)cccc2n1 (centres undefined) : 0
Cc1ccc2c(N3CCN(CCc4cc5c(cc4F)OCC(=O)N5)CC3)cccc2n1 : 0
Cc1ccc2c(N3CCN(CCc4ccc5c(c4)NC(=O)CO5)[C@@H](C)C3)cccc2n1 : 0
Cc1ccc2c(N3CCN(CCc4ccc5c(c4)NC(=O)CO5)CC3)cc(Cl)cc2n1 : 0
Cc1ccc2c(N3CCN(CCc4ccc5c(c4)NC(=O)CO5)CC3)ccc(Cl)c2n1 : 0
O=C1COc2ccc(CCN3CCN(c4cccc5nc(-c6ccccc6)ccc45)CC3)cc2N1 : 0
Cc1ccc2c(N3CCN(CCc4ccc5c(c4)NC(=O)CO5)CC3)ccc(F)c2n1 : 0
O=C1COc2ccc(CCN3CCN(c4cccc5cccnc45)CC3)cc2N1 : 0.7

// Intrinsic activity lookup, compound = O=C1COc2ccc(CCN3CCN(c4nccc5ccccc45)CC3)cc2N1 , result: 0.4

So, CC1(C)Cc2cccc(N3CCN(CCc4ccc5c(c4)NC(=O)CO5)CC3)c2O1 ? Its Intrinsic activity was 0.5

Recorded result, Cc1ncc2c(N3CCN(CCc4ccc5c(c4)NC(=O)CO5)CC3)cccc2n1 , Intrinsic activity: 0

Please fill in: Intrinsic activity reported for Cc1ccc2c(N3CCN(CCc4ccc5c(c4F)NC(=O)CO5)CC3)cccc2n1 = 0

Reported Intrinsic activity ( Cc1ccc2c(N3CCN(CCc4ccc5c(c4)NC(=O)CO5)[C@H](C)C3)cccc2n1 ) = 0
